target: KAT6A (Homo sapiens (Human)); test: KAT assay (SAMDI mass spectrometry), KAT6A; assay type: biochemical; details: read-out: KAT6a Ki at 10 μM AcCoA; 10 μM AcCoA
Sequence (Q92794 whole entry): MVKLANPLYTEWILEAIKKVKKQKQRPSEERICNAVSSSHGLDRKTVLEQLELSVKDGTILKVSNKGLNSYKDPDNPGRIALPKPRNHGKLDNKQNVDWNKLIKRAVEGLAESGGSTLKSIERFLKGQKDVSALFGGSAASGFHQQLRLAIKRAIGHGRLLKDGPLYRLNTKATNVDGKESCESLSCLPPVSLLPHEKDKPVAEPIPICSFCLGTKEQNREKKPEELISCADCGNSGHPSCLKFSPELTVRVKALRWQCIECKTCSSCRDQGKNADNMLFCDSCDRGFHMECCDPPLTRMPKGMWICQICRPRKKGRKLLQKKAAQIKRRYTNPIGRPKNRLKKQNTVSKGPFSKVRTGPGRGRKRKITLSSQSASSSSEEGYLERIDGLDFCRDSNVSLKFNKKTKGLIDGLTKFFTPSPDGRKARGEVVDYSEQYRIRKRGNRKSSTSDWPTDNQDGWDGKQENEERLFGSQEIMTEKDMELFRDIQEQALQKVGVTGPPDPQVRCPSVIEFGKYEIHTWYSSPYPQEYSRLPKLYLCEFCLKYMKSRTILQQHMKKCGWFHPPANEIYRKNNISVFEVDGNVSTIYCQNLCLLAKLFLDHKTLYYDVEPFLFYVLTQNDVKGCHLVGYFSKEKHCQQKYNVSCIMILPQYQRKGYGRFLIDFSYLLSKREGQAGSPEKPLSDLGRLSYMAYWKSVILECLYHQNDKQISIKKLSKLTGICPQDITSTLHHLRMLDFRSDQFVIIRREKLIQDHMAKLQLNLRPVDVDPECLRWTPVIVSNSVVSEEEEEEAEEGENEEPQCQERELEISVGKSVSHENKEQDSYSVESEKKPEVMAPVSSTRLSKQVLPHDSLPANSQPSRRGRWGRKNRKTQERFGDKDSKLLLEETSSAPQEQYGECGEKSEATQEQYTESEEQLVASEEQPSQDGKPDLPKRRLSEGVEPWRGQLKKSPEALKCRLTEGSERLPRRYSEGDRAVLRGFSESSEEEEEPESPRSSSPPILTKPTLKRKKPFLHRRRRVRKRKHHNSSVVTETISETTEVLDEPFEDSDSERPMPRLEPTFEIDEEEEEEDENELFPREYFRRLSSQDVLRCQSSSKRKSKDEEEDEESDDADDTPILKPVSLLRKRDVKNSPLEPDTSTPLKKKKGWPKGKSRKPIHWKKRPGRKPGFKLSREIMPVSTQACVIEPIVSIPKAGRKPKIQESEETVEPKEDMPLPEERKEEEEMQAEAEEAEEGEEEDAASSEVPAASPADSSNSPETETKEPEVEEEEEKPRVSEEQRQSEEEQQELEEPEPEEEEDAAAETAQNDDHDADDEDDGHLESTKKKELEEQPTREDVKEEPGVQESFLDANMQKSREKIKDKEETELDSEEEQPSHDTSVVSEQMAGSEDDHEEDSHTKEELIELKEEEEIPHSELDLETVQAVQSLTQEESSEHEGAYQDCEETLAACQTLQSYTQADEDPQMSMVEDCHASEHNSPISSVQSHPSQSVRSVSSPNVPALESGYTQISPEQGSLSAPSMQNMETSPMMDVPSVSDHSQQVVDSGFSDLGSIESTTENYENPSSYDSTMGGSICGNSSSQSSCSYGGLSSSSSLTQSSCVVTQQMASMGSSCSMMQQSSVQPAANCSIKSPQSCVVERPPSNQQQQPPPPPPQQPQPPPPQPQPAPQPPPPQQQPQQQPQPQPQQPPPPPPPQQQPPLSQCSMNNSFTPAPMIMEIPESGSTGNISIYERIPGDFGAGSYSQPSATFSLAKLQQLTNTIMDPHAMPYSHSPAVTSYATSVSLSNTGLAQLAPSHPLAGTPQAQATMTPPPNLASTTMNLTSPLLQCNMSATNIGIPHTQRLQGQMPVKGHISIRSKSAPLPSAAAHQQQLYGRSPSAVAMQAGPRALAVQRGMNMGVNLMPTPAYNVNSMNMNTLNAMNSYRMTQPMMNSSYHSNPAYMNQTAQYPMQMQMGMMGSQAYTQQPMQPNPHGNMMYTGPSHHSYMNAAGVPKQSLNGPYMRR
Readout Label: Ki (nM)

These solved cases illustrate the format of a correct answer.
COc1cc(Br)cc(OC)c1S(=O)(=O)Nc1noc2cc(Cn3cccn3)cc(OC)c12 | 3.23
COc1cc(Cn2cccn2)cc2onc(NS(=O)(=O)c3cccc(C)c3C#N)c12 | 3.62
COc1cc(Cn2cccn2)cc2onc(NS(=O)(=O)c3ccc(C)cc3F)c12 | 4.44
COc1cccc(OC)c1S(=O)(=O)Nc1noc2cc(Cn3nccc3C)cc(OC)c12 | 1.54
COc1cccc(OC)c1S(=O)(=O)Nc1noc2cc(Cn3cccn3)c(Br)cc12 | 0.45

I = COc1cccc(F)c1S(=O)(=O)Nc1noc2cc(Cn3cccn3)cc(OC)c12
II = COc1ccc(S(=O)(=O)Nc2noc3cc(Cn4cccn4)cc(OC)c23)c(C)c1F
III = COc1ccc(S(=O)(=O)Nc2noc3cc(Cn4cccn4)cc(OC)c23)cc1C
IV = COc1cc(C)ccc1S(=O)(=O)Nc1noc2cc(Cn3cccn3)cc(OC)c12
Ask | Arrange by Ki, high to low. When ranking, write the labels in the order the request describes.
Reply | II, III, I, IV
(II: 8.77 nM, III: 5.61 nM, I: 2.32 nM, IV: 0.49 nM)

A = COc1cc(Cn2cccn2)cc2onc(NS(=O)(=O)c3cccc(C)c3F)c12
B = COc1cc(Cn2cccn2)cc2onc(NS(=O)(=O)c3cc(C)ccc3F)c12
C = COc1ccc(O)c(S(=O)(=O)Nc2noc3cc(Cn4cccn4)cc(OC)c23)c1
Ask | Arrange by Ki, high to low. When ranking, write the labels in the order the request describes.
Reply | C, B, A

1 = COc1cc(Cn2cccn2)cc2onc(NS(=O)(=O)c3cc(F)ccc3C)c12
2 = COC(=O)c1c(C)cccc1S(=O)(=O)Nc1noc2cc(Cn3cccn3)cc(OC)c12
3 = COc1ccc(OC(F)(F)F)cc1S(=O)(=O)Nc1noc2cc(Cn3cccn3)cc(OC)c12
4 = COc1cc(Cn2cccn2)cc2onc(NS(=O)(=O)c3ccccc3C(F)(F)F)c12
Ask | Arrange by Ki, high to low. When ranking, write the labels in the order the request describes.
Reply | 2, 4, 1, 3
(2: 13.6 nM, 4: 7.32 nM, 1: 4.14 nM, 3: 0.64 nM)

----------
target: KAT6A (Homo sapiens (Human)); experiment: KAT assay (SAMDI mass spectrometry), KAT6A; assay type: biochemical; conditions: read-out: KAT6a Ki at 10 μM AcCoA; 10 μM AcCoA;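 note: Baculovirus-expressed KAT6A acetylating histone H3 (1-21) peptide (2 µM), 30-60 min at room temperature, % product conversion fitted to Morrison equation for tight-binding competitive inhibitors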
Readout Label: Ki (nM)

COc1cc(Cn2cccn2)cc2onc(NS(=O)(=O)c3cc(C)cc(C)c3)c12 | 6.51
COc1cccc(OC)c1S(=O)(=O)Nc1noc2cc(Cn3cccn3)cc(OC(C)C)c12 | 4.65
COc1cc(Cn2cccn2)cc2onc(NS(=O)(=O)c3ccc(OC4CC4)cc3)c12 | 4.64

Ref: patent US11492346B2
